Experiment summary: Lipid nanoparticle size and polydispersity index by dynamic light scattering (Malvern Zetasizer)
Assay type: physicochemical
Conditions used: hEPO mRNA LNP, Process A, Cationic Lipid:DMG-PEG2000:Cholesterol:DOPE 40:1.5:28.5:30 mol %, N/P 4
Experimental readout: Size (nm)
Express the result in nm but write the number alone.

>  <Compound>
CCCCCCCCCCC(O)CN(CCCSC(=O)N[C@H]1CO[C@H]2[C@@H]1OC[C@@H]2NC(=O)SCCCN(CC(O)CCCCCCCCCC)CC(O)CCCCCCCCCC)CC(O)CCCCCCCCCC (stereo partly shown) [Compound 54]

>  <Size (nm)>
79

$$$$
>  <Compound>
CCCCCCCCCCC(O)CN(CCCOC(=O)O[C@H]1CO[C@H]2[C@@H]1OC[C@H]2OC(=O)OCCCN(CC(O)CCCCCCCCCC)CC(O)CCCCCCCCCC)CC(O)CCCCCCCCCC (stereo partly shown) [Compound 40]

>  <Size (nm)>
84

$$$$
>  <Compound>
CCCCCC/C=C\COC(=O)CCCCCC(O)CN(CCCC(=O)O[C@H]1CO[C@H]2[C@@H]1OC[C@H]2OC(=O)CCCN(CC(O)CCCCCC(=O)OC/C=C\CCCCCC)CC(O)CCCCCC(=O)OC/C=C\CCCCCC)CC(O)CCCCCC(=O)OC/C=C\CCCCCC (stereo partly shown) [Compound 35]

>  <Size (nm)>
92

$$$$
>  <Compound>
CCCCCCCCCCCCC(O)CN(CCCCC(=O)O[C@H]1CO[C@H]2[C@@H]1OC[C@H]2OC(=O)CCCCN(CC(O)CCCCCCCCCCCC)CC(O)CCCCCCCCCCCC)CC(O)CCCCCCCCCCCC (stereo partly shown) [Compound 28]

>  <Size (nm)>
91

$$$$
>  <Compound>
CCCCCCCCCCCOC(=O)CCCC(O)CN(CCCC(=O)O[C@@H]1CO[C@H]2[C@@H]1OC[C@H]2OC(=O)CCCN(CC(O)CCCCCCCCCC)CC(O)CCCCCCCCCC)CC(O)CCCCCC(=O)OC(CCCCCCCC)CCCCCCCC (stereo partly shown) [Compound 9]

>  <Size (nm)>
114

$$$$
>  <Compound>
CCCCCCCCC(O)CN(CCCCC(=O)O[C@H]1CO[C@H]2[C@@H]1OC[C@H]2OC(=O)CCCCN(CC(O)CCCCCCCC)CC(O)CCCCCCCC)CC(O)CCCCCCCC (stereo partly shown) [Compound 21]

>  <Size (nm)>
78

$$$$
>  <Compound>
CCCCCCCCC(O)CN(CCCCC(=O)O[C@@H]1CO[C@H]2[C@@H]1OC[C@H]2OC(=O)CCCCN(CC(O)CCCCCCCC)CC(O)CCCCCCCC)CC(O)CCCCCCCC (stereo partly shown) [Compound 2]

>  <Size (nm)>
77

$$$$
>  <Compound>
CCCCCCCCCCCOC(=O)CCCC(O)CN(CCCC(=O)O[C@@H]1CO[C@H]2[C@@H]1OC[C@@H]2OC(=O)CCCN(CC(O)CCCCCCCCCC)CC(O)CCCCCCCCCC)CC(O)CCCCCC(=O)OC(CCCCCCCC)CCCCCCCC (stereo in doubt) [Compound 32]

>  <Size (nm)>
94

$$$$
>  <Compound>
CCCCCC/C=C\COC(=O)CCCCCC(O)CN(CCCC(=O)O[C@@H]1CO[C@H]2[C@@H]1OC[C@H]2OC(=O)CCCN(CC(O)CCCCCCCCCC)CC(O)CCCCCCCCCC)CC(O)CCCCCC(=O)OC/C=C\CCCCCC (stereo partly shown) [Compound 15]

>  <Size (nm)>
88

$$$$
>  <Compound>
CCCCCCCCCCCCC(O)CN(CCCC(=O)N[C@H]1CO[C@H]2[C@@H]1OC[C@@H]2NC(=O)CCCN(CC(O)CCCCCCCCCCCC)CC(O)CCCCCCCCCCCC)CC(O)CCCCCCCCCCCC (stereo partly shown) [Compound 55]

>  <Size (nm)>
101

$$$$

Data point: CCCCCCCCCCC(O)CN(CCCC(=O)O[C@H]1CO[C@H]2[C@@H]1OC[C@H]2OC(=O)CCCN(CC(O)CCCCCCCCCC)CC(O)CCCCCCCCCC)CC(O)CCCCCCCCCC (stereo in doubt) [Compound 3] ; Size (nm) = 95

Data point: CCCCCCCCCCC(O)CN(CCCCC(=O)O[C@@H]1CO[C@H]2[C@@H]1OC[C@H]2OC(=O)CCCCN(CC(O)CCCCCCCCCC)CC(O)CCCCCCCCCC)CC(O)CCCCCCCCCC (stereo partly shown) [Compound 4] ; Size (nm) = 78

Data point: CCCCCCCCCCC(O)CN(CCCC(=O)O[C@H]1CO[C@H]2[C@@H]1OC[C@H]2OC(=O)CCCN(CC(O)CCCCCCCC)CC(O)CCCCCCCC)CC(O)CCCCCCCCCC (stereo partly shown) [Compound 22] ; Size (nm) = 75

Data point: CCCCCCCCC(O)CN(CCCC(=O)O[C@@H]1CO[C@H]2[C@@H]1OC[C@H]2OC(=O)CCCN(CC(O)CCCCCCCC)CC(O)CCCCCCCC)CC(O)CCCCCCCC (stereo partly shown) [Compound 1] ; Size (nm) = 93

Data point: CCCCCCCCCCCCC(O)CN(CCCCC(=O)O[C@@H]1CO[C@H]2[C@@H]1OC[C@H]2OC(=O)CCCCN(CC(O)CCCCCCCCCCCC)CC(O)CCCCCCCCCCCC)CC(O)CCCCCCCCCCCC (stereo partly shown) [Compound 5] ; Size (nm) = 107

Data point: CCCCCCCCCCCCCCCCC(O)CN(CCCCC(=O)O[C@@H]1CO[C@H]2[C@@H]1OC[C@H]2OC(=O)CCCCN(CC(O)CCCCCCCCCCCCCCCC)CC(O)CCCCCCCCCCCCCCCC)CC(O)CCCCCCCCCCCCCCCC (stereo partly shown) [Compound 31] ; Size (nm) = 98
